Test system: IGROV-1
assayProcedure: NCI tumour cell line growth inhibition, 48 h
Active and inactive are the calls of the source. No stated cut-off is given here; in the data, active = GI50 up to about 1.1 µM and inactive = higher. Peptide text beside a SMILES is read from it. * marks the point of attachment. Cbz = O=C(OCc1ccccc1)*; CH2Cl = ClC*
endpoint: GI50

{"columns": ["molecule", "system", "recordedMeasurement"],
 "data": [
  ["O=C(O)c1ccc([N+](=O)[O-])c(P(=O)(O)O)c1", "IGROV-1", "> 100 µM (inactive)"],
  ["CN[C@H](C)[C@@H](OC)c1ccccc1", "IGROV-1", "> 100 µM (inactive)"],
  ["Cn1cnc([N+](=O)[O-])c1Sc1nc2cccnc2s1", "IGROV-1", "17.5 µM (inactive)"],
  ["CC(C)CC(NC(=O)OCc1ccccc1)C(=O)NC(Cc1ccccc1)C(=O)CCl (stereo not drawn) (Cbz-Leu-Phe-CH2Cl; configuration not given here)", "IGROV-1", "2 µM (inactive)"],
  ["CCOP(=O)(OCC)/C(C#N)=C/c1cnc(C)[nH]1", "IGROV-1", "> 100 µM (inactive)"],
  ["COc1cc(O)c2c(c1)C(=O)C=C(Cl)C2=O", "IGROV-1", "> 100 µM (inactive)"],
  ["COc1c2c(cc3c1C(=O)Cc1ccc4c(c1CN(C)CC3)OCO4)OCO2", "IGROV-1", "18.5 µM (inactive)"]
]}

----------
System: 786-0
assayProcedure: NCI tumour cell line growth inhibition, 48 h
The source made the active and inactive calls. Rule as the data show it: active = GI50 up to about 1.1 µM and inactive = higher.
Outcomes: true (active), false (inactive)

{"columns": ["compound", "classAssignment"],
 "data": [
  ["O=C(NCC#CCO)C(F)(F)F", "false"],
  ["CSc1ccc2c(cc1=O)C(NC(=O)c1ccc(OC(C)=O)cc1)CCc1cc(O)c(O)c(O)c1-2 (centres undefined)", "false"],
  ["CC(=O)/C=C/C=C(\\C)CC/C=C(\\C)CC(C)C", "false"],
  ["Nc1ccc2[nH]c(C(=O)N3CC(CCl)c4c3cc(N)c3ccccc43)cc2c1 (centres undefined)", "true"],
  ["COc1cccc(-c2cc(O)c3cc(N4CCCC4)ccc3n2)c1", "true"],
  ["Cn1cnc([N+](=O)[O-])c1Sc1nc2cccnc2s1", "false"],
  ["O=C(c1ccccc1)N(C(=O)c1ccccc1)c1nc(SCc2ccccc2)ns1", "false"],
  ["CC[C@@H]1CC[C@@H]2[C@H](CC[C@]3(C)[C@@H](OC(C)=O)CC[C@@H]23)[C@H]1C(=O)OC", "false"],
  ["CC1=NN(c2ccccc2)C(=O)C1/N=N/c1ccc([As](=O)(O)O)c(O)c1 (centres undefined)", "false"],
  ["COC(=O)c1c(OC(C)=O)ccc2c1c1c(OC(C)=O)c3ccccc3c(OC(C)=O)c1n2Cc1ccccc1", "false"],
  ["O=C1N/C(=N/N=C/c2ccccc2)N/C1=C\\c1cccs1", "false"],
  ["O=[N+]([O-])c1ccc(C(Nc2ccccc2)P(c2ccccc2)c2ccccc2)cc1 (centres undefined)", "false"],
  ["COc1cc(C2c3cc4c(cc3OC(NNS(=O)(=O)c3ccc(C)cc3)C2C)OCO4)cc(OC)c1O (centres undefined)", "false"],
  ["O=C1Nc2ccccc2/C1=N/NC(=O)c1ccccc1O", "false"]
]}
